biological target: HCV replicon; experiment: Anti-HCV assay / replicon assay (EC50, luciferase read-out); assay type: cell-based, hepatitis C virus (HCV); details: human hepatoma Huh-7 cell line harbouring a HCV replicon, 3 days, luciferase luminescence; read-out: EC50
REPORTED_PROPERTY: pEC50
# log scale: pEC50 equals minus log10 of the concentration in mol/L

[[record]]
molecule = "COc1ccc(-c2ccc3nc(N)nc(NCCN4CCOCC4)c3n2)cc1OC [Example 38]"
quantitative_result = 7.33

[[record]]
molecule = "COc1ccc(-c2ccc3nc(N)nc(N4CCN(c5ccccn5)CC4)c3n2)cc1OC [Example 52]"
quantitative_result = 7.38

[[record]]
molecule = "Nc1nc(N2CCN(C(=O)COc3ccc(Cl)cc3)CC2)c2nc(-c3ccc(F)c(Cl)c3)ccc2n1 [Example 387]"
quantitative_result = 7.68

[[record]]
molecule = "Nc1nc(N2CCN(C(=O)COc3ccc(Cl)cc3)CC2)c2nc(-c3ccncc3)ccc2n1 [Example 386]"
quantitative_result = 9.00

[[record]]
molecule = "CC(C)Sc1nc(N)nc2ccc(-c3ccc(F)cc3)nc12 [Example 394]"
quantitative_result = 6.73


Q) Check the records and state pEC50 for Nc1nc(N2CCN(C(=O)COc3ccc(Cl)cc3)CC2)c2nc(-c3ccc(Cl)cc3)ccc2n1 [Example 384]
A) 7.28

Q) Annotate the molecule COc1ccc(-c2ccc3nc(N)nc(N4CCN(Cc5ccc6c(c5)OCO6)CC4)c3n2)cc1OC [Example 55] with its measured pEC50.
A) 6.47

###

tested on: HCV replicon; assay: Anti-HCV assay / replicon assay (EC50, luciferase read-out); type: cell-based, hepatitis C virus (HCV); details: CC50/EC50 ratio (selectivity index)
REPORTED_PROPERTY: CC50/EC50
Respond with the number and no other words.

Example entries and their recorded answers appear below.
[[record]]
query_smiles = "COc1ccc(-c2ccc3nc(Cl)nc(N4CCN(C(=O)Nc5cccc(C)c5)CC4)c3n2)cc1OC"
quantitative_result = 167

[[record]]
query_smiles = "Nc1nc(N2CCN(C(=O)COc3ccc(Cl)cc3)CC2)c2nc(-c3cccc(Cl)c3)ccc2n1"
quantitative_result = 122

[[record]]
query_smiles = "CCOCCOc1nc(N)nc2ccc(-c3ccc(F)cc3)nc12"
quantitative_result = 852


Consider the additional compound presented here.
Q) Consider the compound CCOc1nc(N)nc2ccc(-c3ccc(NC(C)=O)cc3)nc12 . State its measured CC50/EC50.
A) 56

###

system: Huh-7 HCV replicon cells; assay: CC50 assay in Huh-7 HCV replicon cells (CellTiter-Glo); assay type: cell-based, human; conditions: 3 days, 50% cytostatic concentration
REPORTED_PROPERTY: log10 of CC50 (log10 of the value in µM)
Annotation: log10 of CC50, µM basis.

Illustrative cases are given below, each with its answer.
[[record]]
query_smiles = "Nc1nc(N2CCN(C(=O)COc3ccc(Cl)cc3)CC2)c2nc(-c3ccc(Cl)c(Cl)c3)ccc2n1"
assayed_system = "Huh-7 HCV replicon cells"
quantitative_result = 1.09

[[record]]
query_smiles = "Nc1nc(N2CCN(C(=O)COc3ccc(Cl)cc3)CC2)c2nc(-c3ccncc3)ccc2n1"
assayed_system = "Huh-7 HCV replicon cells"
quantitative_result = 0.78

[[record]]
query_smiles = "COc1cc(-c2ccc3nc(N)nc(N4CCN(C(=O)Nc5ccc(F)cc5)CC4)c3n2)ccc1OC(C)C"
assayed_system = "Huh-7 HCV replicon cells"
quantitative_result = 0.56

[[record]]
query_smiles = "Cc1cccc(NC(=O)N2CCN(c3nc(N)nc4ccc(-c5ccc(F)cc5)nc34)CC2)c1"
assayed_system = "Huh-7 HCV replicon cells"
quantitative_result = 0.54

[[record]]
query_smiles = "COc1ccc(-c2ccc3nc(N)nc(Nc4ccc5c(c4)OCO5)c3n2)cc1OC"
assayed_system = "Huh-7 HCV replicon cells"
quantitative_result = 0.68


Q) Specify reported log10 of CC50 for the compound shown: CCOc1nc(N)nc2ccc(-c3ccc(F)c(Cl)c3)nc12
A) 1.70

Q) Fill in reported log10 of CC50 for this entry: COc1ccc(-c2ccc3nc(N)nc(Nc4cccc(C)c4)c3n2)cc1OC
A) 1.70

Q) Give a short answer stating reported log10 of CC50 for Nc1nc(N2CCN(C(=O)COc3ccc(Cl)cc3)CC2)c2nc(-c3ccoc3)ccc2n1 .
A) 0.96

Data origin: patent US8232278B2
